System: D-serine levels in the cerebellum
Assay: In vivo elevation of D-serine levels in the cerebellum;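 further: Cutoffs are cerebellum D-serine in nmol/g wet tissue weight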
Design: species or system Mice (C57BL/6)
Details: mice, intraperitoneal, dose 30 mg/kg, 2 hours
readout: Cerebellum D-serine at 2 hours

compound	Cerebellum D-serine at 2 hours
O=C(O)c1cc2c([nH]1)CCC2c1cccc(F)c1 (single isomer, unassigned) [Compound 96]	(+) (2.5-4.9 = (+))
O=C(O)c1cc2c([nH]1)CCC2Cc1ccc2ccccc2c1 (single isomer, unassigned) [Compound 80]	(+) (2.5-4.9 = (+))
O=C(O)c1cc2c([nH]1)CCC2Cc1ccc(Br)cc1 (single isomer, unassigned) [Compound 62]	(+) (2.5-4.9 = (+))
O=C(O)c1cc2c([nH]1)CCC2Cc1ccc(F)cc1F (single isomer, unassigned) [Compound 47]	(++) (>5 = (++))
CCCC1CCc2[nH]c(C(=O)O)cc21 (single isomer, unassigned) [Compound 8]	(++) (>5 = (++))

Give the measured Cerebellum D-serine at 2 hours of O=C(O)c1cc2c([nH]1)C(Cc1cccc(Cl)c1)CC2 (single isomer, unassigned) [Compound 123] .
(+) (2.5-4.9 = (+))

And the next one, O=C(O)c1cc2c([nH]1)CCC2 [Compound 1] ?
(++) (>5 = (++))

###

Molecular target: UniProt P14920
Assay: D-Amino Acid Oxidase enzyme assay (D-serine, horseradish peroxidase/Amplex Red coupled fluorescence)
Assay type: biochemical
Details: D-serine 5 mM, pH 7.4
The compounds listed here are annotated with their IC50.

Before answering, review these 4 worked examples.
compound	IC50
O=C(O)c1[nH]c2c(c1Br)[C@H]1C[C@H]1C2 [Compound 145]	≤ 100 µM
O=C(O)c1cc2c([nH]1)CCC2c1cccc(Br)c1 (stereo not drawn) [Compound 103]	≤ 0.1 µM
O=C(O)c1cc2c([nH]1)CCC2Cc1ccc2ccccc2c1 (single isomer, unassigned) [Compound 79]	≤ 1 µM
O=C(O)c1cc2c([nH]1)[C@@H]1C[C@@H]1C2 [Compound 146]	≤ 0.1 µM

Below: the item to evaluate.
Item O=C(O)c1cc2c([nH]1)CCC2Cc1ccc(F)c(F)c1 (racemic) [Compound 42] has what recorded IC50?
≤ 0.1 µM

###

Listed compounds paired with reported IC50
Target: Human DAAO (Homo sapiens, UniProt P14920)
Sequence (P14920 whole entry): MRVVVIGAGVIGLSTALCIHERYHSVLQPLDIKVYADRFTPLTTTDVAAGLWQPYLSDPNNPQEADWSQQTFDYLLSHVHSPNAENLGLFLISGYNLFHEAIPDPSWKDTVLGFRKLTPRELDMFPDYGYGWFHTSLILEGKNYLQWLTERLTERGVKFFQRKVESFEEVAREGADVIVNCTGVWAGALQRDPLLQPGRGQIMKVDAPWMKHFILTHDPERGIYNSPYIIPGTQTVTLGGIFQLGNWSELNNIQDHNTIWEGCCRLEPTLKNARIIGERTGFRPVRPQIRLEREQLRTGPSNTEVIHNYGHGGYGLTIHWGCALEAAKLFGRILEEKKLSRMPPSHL
Assay: D-Amino Acid Oxidase enzyme assay (D-serine, horseradish peroxidase/Amplex Red coupled fluorescence)
Format: biochemical
Conditions: D-serine 5 mM, pH 7.4

compound	measured-value
CC(C)CC1CCc2[nH]c(C(=O)O)cc21 (stereo not drawn) [Compound 11]	≤ 1 µM
O=C(O)c1cc2c([nH]1)C(c1ccc(-c3ccccc3)cc1)CC2 (single isomer, unassigned) [Compound 120]	> 100 µM
O=C(O)c1cc2c([nH]1)C(CCCc1ccccc1)CC2 (racemic) [Compound 134]	≤ 1 µM
O=C(O)c1cc2c([nH]1)CCC2Cc1ccc(Cl)cc1 (single isomer, unassigned) [Compound 15]	≤ 0.1 µM

Entry O=C(O)c1cc2c([nH]1)CC1CC21 (single isomer, unassigned) [Compound 139] : reported IC50 = ?
≤ 1 µM

Query O=C(O)c1cc2c([nH]1)CCC2Cc1cccc(Br)c1 (single isomer, unassigned) [Compound 65] next
≤ 100 µM

What do you get for O=C(O)c1cc2c([nH]1)CCC2=O [Compound 2] ?
≤ 100 µM

Now give it for O=C(O)c1cc2c([nH]1)CCC2c1cc(F)cc(F)c1 (racemic) [Compound 98] too.
≤ 1 µM

Next compound: COC1c2cc(C(=O)O)[nH]c2CC1(F)F (stereo not drawn) [Compound 148]
≤ 100 µM

Where do these numbers come from? They come from patent US7902252B2.
